Biological target: Alpha-2 adrenergic receptor (Rattus norvegicus)
Assay: Compound was tested for its binding affinity against Alpha-2 adrenergic receptor
pKi: −log10 of the molar value.
recorded-endpoint: pKi

{"columns": ["given-smiles", "result"],
 "data": [
  ["CCCN(CCCCCCN1CCC[C@@H]1Cc1ccc(O)c(O)c1)CCc1ccc(O)c(O)c1", 6.52]
]}

These entries and their values trace back to BindingDB's records for doi:10.7270/Q2930WC4.
